TARGET OF ASSAY: β-glucosidase (almond)
ASSAY: Glycosidase inhibition assay, β-glucosidase
CONDITION PARAMETERS: read-out: β-Glc IC50; substrate at Km
Reported IC50 by item:

>  <QUERY SMILES>
CCCCN1C/C=C\[C@@H](O)[C@H](O)[C@@H](O)C1

>  <IC50 (µM)>
105

$$$$
>  <QUERY SMILES>
CCCCN1CCC[C@@H](O)[C@H](O)[C@@H](O)C1

>  <IC50 (µM)>
87

$$$$
>  <QUERY SMILES>
CCCCCCCCCN1[C@H](CO)[C@@H](O)[C@@H]1CO

>  <IC50 (µM)>
20

$$$$
>  <QUERY SMILES>
CCCCCCCCCN1CCC[C@@H](O)[C@H](O)[C@@H](O)C1

>  <IC50 (µM)>
92

$$$$

Numbers sourced from paper PMC3431965.
